test system: NCI-H1299; assay: Dark toxicity against human NCI-H1299 cells assessed as reduction in metabolic activity at 10 uM incubated for 4 hrs by MTT assay; assay type: cell-based; set-up: scale not given: the % may be the effect or the level left; settings: nci-h1299, 4 h
Task for the reader: assign each of the following compounds its reported Activity.
Numbers only, in %.

INSERT INTO assay_data (compoundstructurestring, measvalue) VALUES
  ('CC(C)(C)OC(=O)N/N=C(\c1ccccc1)c1c2nc(c(-c3ccc([N+](=O)[O-])cc3)c3ccc([nH]3)c3ccc([nH]3)c(-c3ccc([N+](=O)[O-])cc3)c3ccc1[nH]3)C=C2', 51.15),
  ('C/C(=N/NC(=O)OC(C)(C)C)c1c2nc(c(-c3ccc([N+](=O)[O-])cc3)c3ccc([nH]3)c3ccc([nH]3)c(-c3ccc([N+](=O)[O-])cc3)c3ccc1[nH]3)C=C2', 53.41);

Prompt line: Look up and state reported Activity for `C/C(=N\NS(=O)(=O)c1ccc(C)cc1)c1c2nc(c(-c3ccccc3)c3ccc([nH]3)c3ccc([nH]3)c(-c3ccccc3)c3ccc1[nH]3)C=C2`
Response line: 73.8
